tested on: UO-31 renal; assay: NCI tumour cell line growth inhibition, 48 h
The compounds listed here are annotated with their TGI.

Study these solved cases before continuing.
compound="O=C(c1nc2ccccc2[nH]c1=O)C(O)c1ccco1 (stereo not drawn)" result="> 100 µM"
compound=COc1cc2oc(-c3ccc4c(c3)OCO4)c(OC)c(=O)c2c(OC)c1O result="> 100 µM"

Turning to the following compound.
Item: O=C(O)c1cc2c(cc1CC(Cc1ccc3c(c1)CCCC3)C(=O)O)CCCC2 (stereo not drawn) Test system: UO-31 renal Read-out: TGI Value: ?
> 100 µM

---

tested on: SK-OV-3 ovarian; assay: NCI tumour cell line growth inhibition, 48 h
Items are presented alongside their recorded GI50.

Some solved entries appear below for comparison.
molecule=CCCc1cc(=O)n2c(C(=O)Nc3cccc(C(=O)OCC)c3)c(C(=O)Nc3ccc(F)cc3)sc2n1 result="23.9 µM"
molecule=CCOC(=O)Nc1nc2ccc(Br)cc2s1 result="> 50 µM"
molecule=COc1cc2ncnc(Nc3cccc(Cl)c3F)c2cc1OC(=O)N1CCN(C)C[C@H]1C result="1.12 µM"

Lookup: GI50 / SK-OV-3 ovarian / O=c1[nH]c(=O)c2cc3cc(C4CC(O)C(CO)O4)ccc3cc2[nH]1 (stereo unspecified)
> 100 µM

What do we get for CCCCCCCCCCCCSC1=C(Cl)C(=O)C(OC)=C(OC)C1=O ?
9.78 µM

Queued: Cc1ccc2c(c1)c(Sc1ccc(C(=O)NO)cc1)c1n2CN(C)CC1
1.77 µM
